target: Nuclear receptor subfamily 1 group I member 2 (Homo sapiens) (UniProt O75469); test: Human pregnane X receptor (PXR) small molecule agonists, qHTS assay (AID 1346982); conditions: PXR-Luc HepG2, CYP3A4 luciferase reporter, 24 h; series mostly up to 92.4 µM; also: nearly all actives have a fitted effect of over 35% in size
Sequence (O75469 whole entry, looked up): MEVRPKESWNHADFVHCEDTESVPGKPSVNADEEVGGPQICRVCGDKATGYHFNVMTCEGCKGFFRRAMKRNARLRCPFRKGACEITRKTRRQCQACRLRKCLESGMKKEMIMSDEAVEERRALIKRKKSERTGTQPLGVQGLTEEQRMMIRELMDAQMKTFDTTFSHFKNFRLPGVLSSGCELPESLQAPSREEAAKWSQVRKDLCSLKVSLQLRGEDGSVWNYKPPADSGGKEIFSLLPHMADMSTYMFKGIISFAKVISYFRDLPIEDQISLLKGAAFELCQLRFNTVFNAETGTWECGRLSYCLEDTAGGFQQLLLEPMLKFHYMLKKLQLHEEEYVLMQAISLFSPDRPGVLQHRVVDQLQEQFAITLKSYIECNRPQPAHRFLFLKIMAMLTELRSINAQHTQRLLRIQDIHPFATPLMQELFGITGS
Inconclusive results are not listed. Calls of active or inactive are those of the source. Calls follow the shape of the dose curve; as a rule, active = well fitted activation curve with a large enough effect in the repeat runs; inconclusive = weak or mixed curves; inactive = no such curve, though single readings can be large or run the other way.
// one of T for active, F for inactive, no free text

Prompt: Which result was noted for this compound in the test: CNC(=O)O/N=C/C(C)(C)S(C)=O (stereo not given)
Response: F

Prompt: Next entry: `COP(=S)(OC)SCN1C(=O)c2ccccc2C1=O`
Response: F

Prompt: Next entry: `CC[N+](=O)[O-]`
Response: F

Prompt: Next entry: `CN(C)C(=O)Cl`
Response: F

Prompt: Next entry: `CN(C)C(=O)Nc1cccc(C(F)(F)F)c1`
Response: F

Prompt: Next entry: `Cc1cccc(C)c1NC(=O)CN1CCCC1=O`
Response: F

Prompt: Next entry: `Cl[C@H]1OCCO[C@@H]1Cl`
Response: F

Prompt: Next entry: `O=C(O)CCCc1ccc(N(CCCl)CCCl)cc1`
Response: F

Prompt: Next entry: `O=[N+]([O-])c1ccc(Cl)cc1`
Response: F
